Each record here notes measured IC50.
test system: V. harveyi BB120; experiment: microbe, parasite or virus in culture; assay type: cell-based, Vibrio harveyi; conditions: Vibrio harveyi, read-out: QS inhibition (IC50) V. harveyi

[
  {
    "Item smiles": "O=C(O)/C=C/CI",
    "Measurement target": "V. harveyi BB120",
    "IC50": "1.2 µM"
  },
  {
    "Item smiles": "O=C(O)/C=C/CCl",
    "Measurement target": "V. harveyi BB120",
    "IC50": "72.5 µM"
  },
  {
    "Item smiles": "O=C(O)/C=C/CF",
    "Measurement target": "V. harveyi BB120",
    "IC50": "167 µM"
  },
  {
    "Item smiles": "O=C(O)/C=C/CBr",
    "Measurement target": "V. harveyi BB120",
    "IC50": "10.5 µM"
  }
]

----------
Form field: IC50 (one value per entry).
tested on: Raw264.7 cells; test: Cytotoxicity / cell survival in Raw264.7 cells; conditions: read-out: Cytotoxicity in Raw264.7 cells (IC50); Raw264.7 cells
Measurement kind: IC50 (µM)

[
  {
    "Compound": "O=C(/C=C/CCl)O[C@H]1COC(=O)C1 [Compound 17, epi-honaucin A]",
    "Measurement kind": "IC50",
    "Endpoint unit": "µM",
    "Qual": ">",
    "Val": 49
  },
  {
    "Compound": "CCOC(=O)C[C@H](O)COC(=O)/C=C/CCl [Compound 2, Honaucin B]",
    "Measurement kind": "IC50",
    "Endpoint unit": "µM",
    "Qual": "=",
    "Val": 16
  },
  {
    "Compound": "COC(=O)C[C@H](O)COC(=O)/C=C/CCl [Compound 3, Honaucin C]",
    "Measurement kind": "IC50",
    "Endpoint unit": "µM",
    "Qual": "=",
    "Val": 30
  },
  {
    "Compound": "O=C(/C=C/CCl)O[C@@H]1COC(=O)C1 [Compound 1, Honaucin A]",
    "Measurement kind": "IC50",
    "Endpoint unit": "µM",
    "Qual": ">",
    "Val": 49
  }
]

----------
test system: V. harveyi BB120; test: Growth inhibitory; assay type: cell-based, Vibrio harveyi
Here, each record is paired with measured growth inhibitory effects: none observed up to concentration data.
Measurement kind: growth inhibitory effects: none observed up to concentration

[
  {
    "Compound": "COC(=O)C[C@H](O)COC(=O)/C=C/CCl [Compound 3, Honaucin C]",
    "Measurement target": "V. harveyi BB120",
    "Val": "> 483 µM"
  },
  {
    "Compound": "CCOC(=O)C[C@H](O)COC(=O)/C=C/CCl [Compound 2, Honaucin B]",
    "Measurement target": "V. harveyi BB120",
    "Val": "> 458 µM"
  },
  {
    "Compound": "O=C(/C=C/CCl)O[C@@H]1COC(=O)C1 [Compound 1, Honaucin A]",
    "Measurement target": "V. harveyi BB120",
    "Val": "> 610 µM"
  },
  {
    "Compound": "O=C(O)/C=C/CI [Compound 15, 4-iodocrotonic acid]",
    "Measurement target": "V. harveyi BB120",
    "Val": "> 32 µM"
  }
]
